Experiment: Solubility test of crystal form B in different solvents
Format: physicochemical
Settings: simulated gastric fluid, thermodynamic from solid; 0.01N HCl, 4 h; read-out: Solubility (mg/mL) 4 h
Observation type: solubility at 4 h

> print(dat)
                              line.notation   observation.type       result
1  CCn1nnc(-c2ccc(OCCC(C)(C)CCN3CCN(c4ccnc(N)c4)S3(=O)=O)nc2)n1  solubility at 4 h  > 998 mg/mL

====

Assay: Solubility test of crystal form B in different solvents
Assay type: physicochemical
Conditions: aqueous buffer, thermodynamic from solid; pH 6.8 buffer solution, 24 h; read-out: Solubility (mg/mL) 24 h
Observation type: solubility at 24 h

> print(dat)
                              line.notation       result
1  CCn1nnc(-c2ccc(OCCC(C)(C)CCN3CCN(c4ccnc(N)c4)S3(=O)=O)nc2)n1  < 0.1 mg/mL

====

Assay: Solubility test of crystal form B in different solvents
Format: physicochemical
Details: aqueous buffer, thermodynamic from solid; pH 4.5 buffer solution, 4 h; read-out: Solubility (mg/mL) 4 h
Observation type: solubility at 4 h (mg/mL)

> print(dat)
                                   compound  quantitative.result
1  CCn1nnc(-c2ccc(OCCC(C)(C)CCN3CCN(c4ccnc(N)c4)S3(=O)=O)nc2)n1 [Compound 2]                 6.12

====

Test: Solubility test of crystal form B in different solvents
Type: physicochemical
Settings: aqueous buffer, thermodynamic from solid; pH 7.5 buffer solution, 24 h; read-out: Solubility (mg/mL) 24 h
Observation type: solubility at 24 h

> print(dat)
                                   compound    observation.type       result
1  CCn1nnc(-c2ccc(OCCC(C)(C)CCN3CCN(c4ccnc(N)c4)S3(=O)=O)nc2)n1 [Compound 2]  solubility at 24 h  < 0.1 mg/mL

====

Test: Solubility test of crystal form A in different solvents
Assay type: physicochemical
Details: organic solvent or mixture, thermodynamic from solid; solvent: 2-Methyltetrahydrofuran
Observation type: solubility

> print(dat)
                                   compound        result
1  CCn1nnc(-c2ccc(OCCC(C)(C)CCN3CCN(c4ccnc(N)c4)S3(=O)=O)nc2)n1 [Compound 1]  < 2180 µg/mL

====

Assay: Solubility test of crystal form B in different solvents
Assay type: physicochemical
Settings: aqueous buffer, thermodynamic from solid; pH 4.5 buffer solution, 24 h; read-out: Solubility (mg/mL) 24 h
Observation type: solubility at 24 h (mg/mL)

> print(dat)
                                   compound    observation.type  unit.text  quantitative.result
1  CCn1nnc(-c2ccc(OCCC(C)(C)CCN3CCN(c4ccnc(N)c4)S3(=O)=O)nc2)n1 [Compound 2]  solubility at 24 h      mg/mL                 4.54

====

Experiment: Solubility test of crystal form B in different solvents
Type: physicochemical
Conditions: simulated gastric fluid, thermodynamic from solid; 0.1N HCl, 4 h; read-out: Solubility (mg/mL) 4 h
Observation type: solubility at 4 h

> print(dat)
                              line.notation       result
1  CCn1nnc(-c2ccc(OCCC(C)(C)CCN3CCN(c4ccnc(N)c4)S3(=O)=O)nc2)n1  > 873 mg/mL

Values compiled from patent US10227339B2.
